B1: NP_015628.1 (parent)
chain: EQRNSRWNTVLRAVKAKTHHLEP

- Variants of: B1
- assay overview: protein stability index of a GFP-peptide fusion (GPS, HEK-293T) (PSI 1-6); higher = more stable;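 also: lentivirally expressed fusion library, cells FACS-sorted into six equal-sized GFP/DsRed ratio bins, PSI computed from sequencing read fractions per bin weighted by bin number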
- experimental parameters: c terminus: native
Parameter protein stability index: see the listing below.
Field format: numeric only.

| mutation notation | protein stability index |
| --- | --- |
| T18P | 2.93 |
| H19V | 3.31 |

Let us examine a further case.
// recorded protein stability index for H19A : 3.34
